composite z-score for assorted compounds
Test system: PRMT1 (protein arginine N-methyltransferase 1)
test.name: PRMT1 binders on small-molecule microarrays, primary screen, biochemical, small-molecule microarray, 635 nm fluorescence (AID 1088);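 also: binding of Prmt1 protein to compounds spotted on small-molecule microarray slides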
condition.info: small-molecule microarray binding, higher = more signal

compound: CC[C@@H]1C=C(C(=O)O)[C@H](c2ccccc2)N1S(=O)(=O)c1ccc([N+](=O)[O-])cc1
composite z-score: 0.372

compound: CN1C(=O)C2C=CC(C(O)C3CC=CCC3)N(Nc3ccccc3)C2C1=O (centres undefined)
composite z-score: 1.47

compound: C=C(/C(=C/C[C@@H](OC(=O)c1ccncc1)c1ccc(CO)o1)c1cnc2ccccc2c1)C(C)C
composite z-score: 1.54

compound: CCOC(=O)C[C@H]1[C@H](OC(=O)c2cc3ccccc3oc2=O)[C@@H](NC(=O)C2CCCCC2)c2cc(OCCCO)ccc2N1C(=O)c1ccc2ccccc2n1
composite z-score: 1.06

====

assayed.target: Left-right determination factor 2 (Homo sapiens)
test.name: LEFTY2 binders on small-molecule microarrays, primary screen, biochemical, small-molecule microarray, 635 nm fluorescence scan (AID 1110)
condition.info: LEFTY2 binding, higher = more signal
Could you label it met if measured composite z-score is 0.5 or higher, and not met otherwise?

molecule: CCCNC(=O)[C@@]1(Sc2ccc(C)cc2)CC(=O)N(Cc2ccccc2Cl)[C@@H]1c1ccc(CO)cc1
discrete.label: met

molecule: C=CC[C@@]12N=C(c3ccc(OCCCO)cc3)O[C@@H]1c1ccccc1CN(Cc1ccccc1)C2=O
discrete.label: not met

molecule: COc1cc2c(cc1OC)CN(C(=O)[C@H]1[C@@H]3C(=O)O[C@@H](c4ccccc4)[C@@H](c4ccccc4)N3[C@@H](c3ccccc3OCCO)[C@]13C(=O)Nc1ccc(C#CC4(O)CCCCCC4)cc13)CC2
discrete.label: met

molecule: CO[C@@H]1COC(=O)CC=C[C@H](C)COC(=O)[C@H](Cc2ccccc2)NC(=O)CC=C[C@H]1C
discrete.label: met

molecule: Cc1ccc(N2C(=O)c3ccccc3[C@](C)(C(=O)NCC(C)C)[C@@H]2c2ccc(CO)cc2)nc1
discrete.label: not met

molecule: CC(=O)NCCCC[C@@H]1NC(=O)[C@H]2C[C@@H](C(=O)NCCCCCCN(C)C)[C@@H](c3ccc(O)cc3)N2C1=O
discrete.label: met

molecule: Cc1ccccc1C(O)C1C=CC2C(=O)N(c3ccccc3)C(=O)C2N1Nc1ccc(C#N)cc1 (configuration not stated)
discrete.label: met

====

assayed.target: Concanavalin-A (Canavalia ensiformis) (UniProt P02866)
Sequence (P02866 whole entry, looked up): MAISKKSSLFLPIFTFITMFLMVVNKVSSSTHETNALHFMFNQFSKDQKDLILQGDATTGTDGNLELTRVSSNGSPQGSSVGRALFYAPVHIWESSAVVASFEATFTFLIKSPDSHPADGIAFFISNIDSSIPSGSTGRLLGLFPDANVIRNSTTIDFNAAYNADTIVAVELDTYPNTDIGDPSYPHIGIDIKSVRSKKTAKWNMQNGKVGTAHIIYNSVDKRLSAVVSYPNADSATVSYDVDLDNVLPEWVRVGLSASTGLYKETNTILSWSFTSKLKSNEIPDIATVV
test.name: ConA small-molecule binders, primary screen, artefact control for SMM control protein annotation, biochemical, small-molecule microarray, Alexa647 label, 635 nm (AID 1127);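 also: z combines 667 nm emission intensity with signal-to-noise across three replicate slides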
condition.info: ConA-A647 binding fluorescence, higher = more signal

compound: COCCCNC(=O)[C@@H]1c2ccccc2C(=O)N(CC23CC4CC(CC(C4)C2)C3)[C@H]1c1ccc(CO)cc1
composite z-score: -0.171
--
compound: C=C(C)[C@@H]1CC=C(C(O)C2C=CC3C(=O)NC(=O)C3N2Nc2ccccn2)CC1 (some centres not stated)
composite z-score: 1.14
--
compound: COCCOC(=O)N1C(=O)[C@@]2(c3ccccc31)[C@H](C(=O)N1CCc3cc(OC)c(OC)cc3C1)[C@H]1C(=O)O[C@H](c3ccccc3)[C@H](c3ccccc3)N1[C@@H]2c1ccccc1OCCO
composite z-score: 1.17
--
compound: C[N+](C)(C)CCCCNC(=O)[C@@H]1C[C@@H]2C(=O)N3CCC[C@H]3C(=O)N2[C@@H]1c1cccc(OCCO)c1
composite z-score: 0.909
--
compound: CC(C)=C1C(=O)C(c2ccccc2)=C2CN3C(=O)N(CCc4ccccc4)C(=O)[C@]3(Cc3ccccc3)[C@H]21
composite z-score: -1.18
--
compound: CCC#CCN(Cc1ccccc1Br)[C@H](/C=C/c1ccccc1)[C@@H](O)Cc1ccccc1
composite z-score: -0.779
--
compound: C=CCNC(=O)[C@H]1[C@@H]2C(=O)O[C@@H](c3ccccc3)[C@@H](c3ccccc3)N2[C@@H](c2ccc(O)cc2)[C@]12C(=O)Nc1ccc(C#CCNC(N)=O)cc12
composite z-score: -0.649

====

Test system: Sonic hedgehog protein (Shh)
test.name: small-molecule binders of Shh protein, primary screen, biochemical, small-molecule microarray, 635/667 nm fluorescence (AID 1151);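 also: Shh protein binding to compounds spotted on small-molecule microarray slides; score combines spot fluorescence intensity with signal-to-noise across triplicate slides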
condition.info: small-molecule microarray binding, 635 nm fluorescence; higher = more signal
Output: class label from composite z-score. Mapping: bottom bin: < 0.1; middle bin: ≥ 0.1 and < 0.8; top bin: ≥ 0.8

compound: COc1ccc([Si](C)(C)[C@@H]2[C@@H](CC(=O)N(CCO)Cc3ccccc3)O[C@]3(C(=O)N(Cc4cccc(N5CCC5=O)c4)c4ccccc43)[C@H]2C)cc1
discrete.label: top bin
--
compound: COC(=O)c1c(CC[C@@H](CO)NC(=O)N[C@H](Cn2cc(-c3cncn3C)nn2)C(C)C)oc(C(C)=O)c1C(=O)OC
discrete.label: middle bin
--
compound: O=C1c2ccccc2[C@](Cc2ccccc2I)(C(=O)NCC(F)(F)F)[C@H](c2ccc(CO)cc2)N1Cc1ccccc1C(F)(F)F
discrete.label: middle bin
--
compound: O=C1c2ccccc2[C@](Cc2ccccc2I)(C(=O)NCc2ccccc2)[C@H](c2ccc(CO)cc2)N1Cc1ccccc1C(F)(F)F
discrete.label: bottom bin
--
compound: COCCOC(=O)N1C(=O)[C@@]2(c3cc(C#CCCO)ccc31)[C@H](c1ccc(O)cc1)N1[C@H](c3ccccc3)[C@H](c3ccccc3)OC(=O)[C@H]1[C@@H]2C(=O)Nc1nc2ccccc2s1
discrete.label: top bin
--
compound: C#CCNC(/C=C/c1ccccc1)CO (stereo not drawn)
discrete.label: middle bin
--
compound: COC(=O)Cn1c(C(=O)N2CCCC2)cc2c1C[C@H]1CN(C(=O)c3ccccc3)[C@@](Cc3ccc(OC)cc3)(C(=O)OC)[C@@H]21
discrete.label: bottom bin
--
compound: CCOC(=O)C[C@H]1[C@H](OC(=O)c2ccccc2-c2ccccc2)[C@@H](NC(=O)c2ccc(-c3ccccc3)cc2)c2cc(OCCCO)ccc2N1C(=O)Cc1ccc(OC)cc1
discrete.label: middle bin
--
compound: COc1ccc([Si](C)(C)[C@H]2[C@H](CC(=O)N(CCO)Cc3ccccc3)O[C@@]3(C(=O)N(C)c4ccccc43)[C@@H]2C)cc1
discrete.label: top bin
--
compound: [N-]=[N+]=NCc1ccccc1C[C@@]1(C(=O)N2CCOCC2)N=C(c2ccc(OCCCO)cc2)O[C@@H]1c1ccccc1N=[N+]=[N-]
discrete.label: middle bin
--
compound: C=CCN1C(=O)[C@@]2(O[C@@H](CCn3cc([C@H](O)c4ccccc4)nn3)[C@H]([Si](C)(C)c3ccc(OC)cc3)[C@H]2C)c2cc(N3CCOC3=O)ccc21
discrete.label: middle bin
--
compound: COc1cc2c(cc1OC)CN(C(=O)[C@H]1[C@@H]3C(=O)O[C@@H](c4ccccc4)[C@@H](c4ccccc4)N3[C@@H](c3ccc(O)cc3)[C@]13C(=O)Nc1ccc(C#CC4(O)CCCCCC4)cc13)CC2
discrete.label: top bin
--
compound: O=C1OCC=C[C@H]2OC34C=CCN(Cc5ccccc5)C(=O)[C@H]3N(CCO)C(=O)[C@@H]4[C@@H]12 (stereo partly drawn)
discrete.label: bottom bin

====

test.name: E. coli acrAB mutant growth effects, primary screen, E. coli filamentation inducers, strain DRC39, OD650, 48 h (AID 1179);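 also: screen aims at cell division blockers that make cells filament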
condition.info: E. coli DRC39 delta-acrAB growth, higher = more signal, called active from +8 up or from −8 down

molecule: CCCNC(=O)[C@@]1(Sc2ccc(C)cc2)CC(=O)N(Cc2ccccc2Cl)[C@@H]1c1ccc(CO)cc1
z-score: 0.337

molecule: CO[C@H]1COC(=O)[C@@H](OCc2ccccc2)C=C[C@H](C)[C@@H](OC)COC(=O)[C@H](OCc2ccccc2)C=C[C@@H]1C
z-score: -0.97

molecule: O=[N+]([O-])c1ccc(C[n+]2ccc3ccc(O)cc3c2)o1
z-score: -0.688

molecule: COc1ccc([Si](C)(C)[C@H]2[C@H](CC(=O)N(CCO)Cc3ccccc3)O[C@@]3(C(=O)N(C)c4ccccc43)[C@@H]2C)cc1
z-score: 0.455

molecule: CN1C2C=C(c3ccc(CO)cc3)C(C3C(=O)N(C(N)=O)C(=O)C32)C1c1cccs1 (stereo unspecified)
z-score: 0.798

molecule: CC(=O)NCCCC[C@@H]1NC(=O)[C@@H]2C[C@H](C(=O)NCCCCCCN(C)C)[C@H](c3ccc(O)cc3)N2C1=O
z-score: 0.249

molecule: C=CCN1C(=O)[C@@]2(Cc3ccccc3)N=C(c3ccc(OCCCO)cc3)O[C@H]2c2ccccc21
z-score: -0.239

molecule: CN1C(=O)C2C=CC(C(O)C3CC=CCC3)N(Nc3ccccc3)C2C1=O (stereo unspecified)
z-score: -0.196

molecule: O=C1OCCC/C=C\[C@H]2OC34C=CCN(CCN5CCOCC5)C(=O)[C@H]3N(CCCCCO)C(=O)[C@@H]4C12 (stereo partly specified)
z-score: 0.0435

molecule: O=C1O[C@H](c2ccccc2)[C@H](c2ccccc2)N2[C@H]1[C@@H](C(=O)NC[C@H](O)c1ccccc1)[C@]1(C(=O)Nc3ccc(C#CC4=CCCCC4)cc31)[C@H]2c1ccc(OCCO)cc1
z-score: 0.262

molecule: CCCCCCc1nc(C2CC2)c(C)c2c1[Si](C(C)C)(C(C)C)OC2
z-score: 0.878

molecule: CO[C@H]1COC(=O)CC=C[C@H](C)[C@@H](OC)COC(=O)[C@H](Cc2ccccc2)NC(=O)CC=C[C@@H]1C
z-score: -1.39

molecule: COCCCNC(=O)[C@@H]1c2ccccc2C(=O)N(CC23CC4CC(CC(C4)C2)C3)[C@H]1c1ccc(CO)cc1
z-score: -0.543

molecule: C=C(CCCC)C(=O)CC[C@@H](OC(=O)c1cccnc1)c1cccc(OCCO)c1
z-score: 0.543

molecule: CC(C)[Si]1(C(C)C)OCc2cc(C3CC3)nc(-c3ccccc3)c21
z-score: 0.656

molecule: COCCOC(=O)N1C(=O)[C@@]2(c3cc(C#CC4=CCCCC4)ccc31)[C@H](C(=O)NC[C@H](O)c1ccccc1)[C@H]1C(=O)O[C@H](c3ccccc3)[C@H](c3ccccc3)N1[C@@H]2c1ccccc1OCCO
z-score: -0.542
